Experiment: NCI Yeast Anticancer Drug Screen. Data for the mec2-1 strain (AID 157)
Details: S. cerevisiae mec2-1 strain, at 5.0 µM (retest, dose inferred, filed as 0.5), stronger effect = higher value
This is part of a sample that, as a whole, favours compounds with a hit. Of some 79,000 tested, about 15% had one in any assay. Active and inactive are the calls of the source. Cut-off read from the data, not from the text of the source: active = growth inhibition above about 70%; inactive = the rest.
Reported growth inhibition values for the following molecules.

Answered cases to consult:
Cn1c2ccccc2c2nnc(N/N=C/c3ccccn3)nc21 ... 21% (inactive)
CCCCCCC(C)c1ccccc1O (centres undefined) (tested in a mixture with another compound) ... 24% (inactive)
C[n+]1c(-c2ccc(/C=N/NC(=O)C(=O)N/N=C/c3ccc(-c4cn5ccccc5[n+]4C)cc3)cc2)cn2ccccc21 ... 63% (inactive)

Now for a further molecule.
Q: What value of growth inhibition has been reported for the following molecule? CC(=O)[O-].CC(=O)[O-].CC(=O)[O-].CC(=O)[O-].Cn1c(=O)c2[nH]cnc2n(C)c1=O.Cn1c(=O)c2[nH]cnc2n(C)c1=O.[Rh+2].[Rh+2]
Result: 12% (inactive)
